src = paper PMC5651841

The reader will find reported Kd values listed item by item below.
Target: T1, fibrinogen (UniProt P02671-2 20-644; P02675 31-491; P02679-2 27-437)
T1 construct: fibrinogen alpha chain; fibrinogen beta chain; fibrinogen gamma chain; Named only as fibrinogen; also called Fg
T1 sequence (looked up) 1: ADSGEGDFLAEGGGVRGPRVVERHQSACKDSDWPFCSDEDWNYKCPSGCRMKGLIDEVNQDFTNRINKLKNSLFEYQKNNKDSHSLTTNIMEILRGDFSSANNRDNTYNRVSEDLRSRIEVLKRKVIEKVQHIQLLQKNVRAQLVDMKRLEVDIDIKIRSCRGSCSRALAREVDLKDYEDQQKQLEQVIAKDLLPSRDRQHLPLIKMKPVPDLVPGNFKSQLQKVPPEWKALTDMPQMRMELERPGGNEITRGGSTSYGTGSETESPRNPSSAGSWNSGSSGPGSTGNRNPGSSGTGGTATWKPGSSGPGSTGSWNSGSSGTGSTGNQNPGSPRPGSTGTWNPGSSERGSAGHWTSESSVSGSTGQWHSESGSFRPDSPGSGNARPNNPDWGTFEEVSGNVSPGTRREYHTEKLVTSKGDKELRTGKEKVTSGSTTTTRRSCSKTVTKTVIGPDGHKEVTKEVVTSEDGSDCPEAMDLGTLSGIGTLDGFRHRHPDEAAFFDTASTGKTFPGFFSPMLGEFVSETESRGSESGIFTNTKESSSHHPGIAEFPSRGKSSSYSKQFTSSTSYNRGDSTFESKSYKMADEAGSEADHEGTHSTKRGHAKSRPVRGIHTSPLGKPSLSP
T1 sequence (looked up) 2: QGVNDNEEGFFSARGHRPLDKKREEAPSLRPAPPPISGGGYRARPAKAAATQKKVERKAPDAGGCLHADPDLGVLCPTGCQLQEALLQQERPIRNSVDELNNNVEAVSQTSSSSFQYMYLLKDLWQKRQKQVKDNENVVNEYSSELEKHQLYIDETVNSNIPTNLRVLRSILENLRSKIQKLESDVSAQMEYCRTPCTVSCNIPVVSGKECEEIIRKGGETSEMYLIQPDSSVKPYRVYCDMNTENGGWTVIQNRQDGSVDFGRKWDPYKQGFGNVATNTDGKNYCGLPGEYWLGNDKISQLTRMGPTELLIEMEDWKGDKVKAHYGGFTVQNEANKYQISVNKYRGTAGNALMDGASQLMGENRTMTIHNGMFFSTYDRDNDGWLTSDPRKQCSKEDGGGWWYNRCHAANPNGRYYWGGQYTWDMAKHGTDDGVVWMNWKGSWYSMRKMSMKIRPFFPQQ
T1 sequence (looked up) 3: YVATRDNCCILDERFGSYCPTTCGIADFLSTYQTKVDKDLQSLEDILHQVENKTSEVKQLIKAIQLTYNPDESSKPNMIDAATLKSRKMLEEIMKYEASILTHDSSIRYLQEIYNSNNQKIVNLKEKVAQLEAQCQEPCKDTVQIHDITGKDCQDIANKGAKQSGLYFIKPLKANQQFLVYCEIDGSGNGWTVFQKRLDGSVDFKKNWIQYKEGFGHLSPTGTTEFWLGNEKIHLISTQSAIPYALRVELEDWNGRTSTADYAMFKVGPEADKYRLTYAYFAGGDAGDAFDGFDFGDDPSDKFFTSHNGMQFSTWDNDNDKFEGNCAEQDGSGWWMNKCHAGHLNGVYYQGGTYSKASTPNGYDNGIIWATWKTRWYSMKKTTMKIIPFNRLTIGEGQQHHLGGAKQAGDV
Test: ELISA; matrix component (0.25 ug/well in 0.1 M Na2CO3, overnight 4 C) immobilised on polystyrene plates; Emp forms 0-1.5 uM added for 1 h at RT, PBST washes; detected with polyclonal anti-Emp IgG and AP-conjugated anti-rabbit IgG; KD from steady-state curves, one-site binding model
Conditions: both partners purified
measured-quantity: Kd

- full-length Emp protein (extracellular matrix protein Emp of Staphylococcus aureus, without the signal peptide) (natural protein, gene of 1,023 nucleotides; numbers count on: the protein without signal peptide and without His-tag; The vector (printed pQ30-UA, Qiagen) probably adds an N-terminal His6 (surmised); Primer EmpFor1UA starts at nt +76 (codon 26), which would give 315 residues against the printed 314; also called EmpFL; source: E. coli (TG1 transformants, plasmid pQemp), purified (Ni-NTA in 8 M urea, solubilized by …)) SVTESVDKKFVVPESGINKIIPAYDEFKNSPKVNVSNLTDNKNFVASEDKLNKIADSSAASKIVDKNFVVPESKLGNIVPEYKEINNRVNVATNNPASQQVDKHFVAKGPEVNRFITQNKVNHHFITTQTHYKKVITSYKSTHVHKHVNHAKDSINKHFIVKPSESPRYTHPSQSLIIKHHFAVPGYHAHKFVTPGHASIKINHFCVVPQINSFKVIPPYGHNSHRMHVPSFQNNTTATHQNAKVNKAYDYKYFYSYKVVKGVKKYFSFSQSNGYKIGKPSLNIKNVNYQYAVPSYSPTHYVPEFKGSLPAPRV: 70 nM
- Emp2 (central fragment of Emp) (domain or fragment, primers EmpFor2UA (+322) and EmpRev2UA (+648) relative to ATG; limits worked out from these positions and count on the precursor; source: E. coli (TG1 transformants, plasmid pQemp2), purified (Ni-NTA in 8 M urea, solubilized by stepwise dialysis)) YKEINNRVNVATNNPASQQVDKHFVAKGPEVNRFITQNKVNHHFITTQTHYKKVITSYKSTHVHKHVNHAKDSINKHFIVKPSESPRYTHPSQSLIIKHHFAVPGYHAH: 9 nM
- Emp2+3 (combination of Emp2 and Emp3; N-truncated Emp) (domain or fragment, limits worked out from these positions and count on the precursor; source: E. coli (TG1 transformants, plasmid pQemp2 + 3), purified (Ni-NTA in 8 M urea, solubilized by stepwise dialysis)) YKEINNRVNVATNNPASQQVDKHFVAKGPEVNRFITQNKVNHHFITTQTHYKKVITSYKSTHVHKHVNHAKDSINKHFIVKPSESPRYTHPSQSLIIKHHFAVPGYHAHKFVTPGHASIKINHFCVVPQINSFKVIPPYGHNSHRMHVPSFQNNTTATHQNAKVNKAYDYKYFYSYKVVKGVKKYFSFSQSNGYKIGKPSLNIKNVNYQYAVPSYSPTHYVPEFKGSLPAPRV: 556 nM
- Emp3 (C-terminal fragment of Emp) (domain or fragment, primers EmpFor3UA (+622) and EmpRev3UA (+1024, holds the stop codon) relative to ATG; limits worked out from these positions and count on the precursor; source: E. coli (TG1 transformants, plasmid pQemp3), purified (Ni-NTA in 8 M urea, solubilized by stepwise dialysis)) FAVPGYHAHKFVTPGHASIKINHFCVVPQINSFKVIPPYGHNSHRMHVPSFQNNTTATHQNAKVNKAYDYKYFYSYKVVKGVKKYFSFSQSNGYKIGKPSLNIKNVNYQYAVPSYSPTHYVPEFKGSLPAPRV: 756 nM
- Emp1+2 (combination of Emp1 and Emp2) (domain or fragment, limits worked out from these positions and count on the precursor; source: E. coli (TG1 transformants, plasmid pQemp1 + 2), purified (Ni-NTA in 8 M urea, solubilized by stepwise dialysis)) ASVTESVDKKFVVPESGINKIIPAYDEFKNSPKVNVSNLTDNKNFVASEDKLNKIADSSAASKIVDKNFVVPESKLGNIVPEYKEINNRVNVATNNPASQQVDKHFVAKGPEVNRFITQNKVNHHFITTQTHYKKVITSYKSTHVHKHVNHAKDSINKHFIVKPSESPRYTHPSQSLIIKHHFAVPGYHAH: 14 nM
